Origin of measurements: patent US20210332142A1

# tested system: T1, recombinant human Tie2 extracellular domain (human, UniProt Q02763 23-748)
# T1 construct: whole entry named; also called Recombinant human Tie2 ECD; hu Tie2
# T1 sequence (Q02763 23-748 limits assumed): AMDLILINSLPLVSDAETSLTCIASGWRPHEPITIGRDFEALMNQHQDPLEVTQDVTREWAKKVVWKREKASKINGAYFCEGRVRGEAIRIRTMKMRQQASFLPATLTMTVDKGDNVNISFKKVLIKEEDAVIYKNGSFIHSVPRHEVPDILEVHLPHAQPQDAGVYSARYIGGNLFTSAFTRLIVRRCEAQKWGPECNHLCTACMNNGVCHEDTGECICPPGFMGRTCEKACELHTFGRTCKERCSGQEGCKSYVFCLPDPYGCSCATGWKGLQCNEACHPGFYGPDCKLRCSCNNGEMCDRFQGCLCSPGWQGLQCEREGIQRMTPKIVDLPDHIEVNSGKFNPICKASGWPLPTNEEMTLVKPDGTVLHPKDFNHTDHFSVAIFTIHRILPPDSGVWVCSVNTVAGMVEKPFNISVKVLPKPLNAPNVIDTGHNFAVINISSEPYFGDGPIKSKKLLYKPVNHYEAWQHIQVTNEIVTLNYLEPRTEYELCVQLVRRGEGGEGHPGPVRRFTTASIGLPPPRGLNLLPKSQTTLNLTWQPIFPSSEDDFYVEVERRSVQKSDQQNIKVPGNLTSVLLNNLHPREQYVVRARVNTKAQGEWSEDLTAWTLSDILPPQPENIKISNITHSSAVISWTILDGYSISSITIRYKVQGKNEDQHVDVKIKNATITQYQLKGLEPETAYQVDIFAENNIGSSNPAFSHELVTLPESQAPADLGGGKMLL
# protocol description: SPR, IgG captured, 37C
quantity measured: Normalized Binding Signal, 300 nM
Provide a numeric answer; units are not to be included.

Before answering, review these 2 worked examples.
binder | Normalized Binding Signal, 300 nM
Tie2.1.M100cI (antibody, IgG1, name in Kabat numbering, V domains shown, hIgG1) VH: EVQLVESGGGLVQPGGSLRLSCAASGFTFSNTDISWVRQAPGKGLEWVGRISPSDGNTYYADSVKGRFTISADTSKNTAYLQMNSLRAEDTAVYYCARRTRWASWAIDYWGQGTLVTVSS VL: DIQMTQSPSSLSASVGDRVTITCRASQDVSTAVAWYQQKPGKAPKLLIYSASFLYSGVPSRFSGSGSGTDFTLTISSLQPEDFATYYCQQSYTTPPTFGQGTKVEIKR | 0.03
Tie2.1.M100cC (antibody, IgG1, name in Kabat numbering, V domains shown, hIgG1) VH: EVQLVESGGGLVQPGGSLRLSCAASGFTFSNTDISWVRQAPGKGLEWVGRISPSDGNTYYADSVKGRFTISADTSKNTAYLQMNSLRAEDTAVYYCARRTRWASWACDYWGQGTLVTVSS VL: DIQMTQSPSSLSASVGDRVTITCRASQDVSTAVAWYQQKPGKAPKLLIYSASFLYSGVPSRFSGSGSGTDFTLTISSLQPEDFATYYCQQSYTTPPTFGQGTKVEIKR | 0.11

# ---- query binder ----
Q) For the binder shown here, Tie2.1.M100cF (antibody, IgG1, V domains shown, hIgG1 in the SPR and binning assays) VH: EVQLVESGGGLVQPGGSLRLSCAASGFTFSNTDISWVRQAPGKGLEWVGRISPSDGNTYYADSVKGRFTISADTSKNTAYLQMNSLRAEDTAVYYCARRTRWASWAFDYWGQGTLVTVSS VL: DIQMTQSPSSLSASVGDRVTITCRASQDVSTAVAWYQQKPGKAPKLLIYSASFLYSGVPSRFSGSGSGTDFTLTISSLQPEDFATYYCQQSYTTPPTFGQGTKVEIK , give the reported Normalized Binding Signal, 300 nM.
A) 0.16
